targetDesc: UniProtKB P45452
readoutLabel: IC50 (µM)
Give bare numbers, in µM.

Recorded result, O=C1N/C(=N/c2nsc3ccccc23)S/C1=C/c1ccccc1 , IC50: 32
